// data source = patent US7256042B2

tested on: hES cell derived embryoid bodies; test: Comparison of potential hepatocyte differentiation agents; type: cell-based, human; conditions: concentration of 5 mM, 6 days
parameter.measured: Effect on hepatocyte differentiation (in words)

{"molecule": "CCCC(=O)[O-].[Na+] [Sodium n-butyrate]", "system.tested": "hES cell derived embryoid bodies", "measurement": "equally effective"}
{"molecule": "CCCC(=O)O", "system.tested": "hES cell derived embryoid bodies", "measurement": "equally effective"}

----------
tested on: hES cell derived embryoid bodies; test: Comparison of potential hepatocyte differentiation agents; format: cell-based, human; details: EBs 4 days in suspension, replated on plates coated with collagenase 1, cultured with each compound for 6 days; analogs at 5 mM; for Induction of hepatocyte phenotype: key: +: Causes hepatocyte differentiation and selective elimination of other cell types; −: No inductive effect; ±: Mild inductive effect; may allow growth or survival of other cell types
parameter.measured: Induction of hepatocyte phenotype

These recorded examples may help you get a feel for the data.
{"compound": "CC(O)CC(=O)O (stereo not drawn) [β-hydroxybutyric acid]", "system.tested": "hES cell derived embryoid bodies", "measurement": "−"}
{"compound": "CCCCCC(=O)O", "system.tested": "hES cell derived embryoid bodies", "measurement": "−"}
{"compound": "CCC(O)C(=O)O (stereo not drawn) [α-hydroxybutyric acid]", "system.tested": "hES cell derived embryoid bodies", "measurement": "−"}
{"compound": "CCCCC(=O)O", "system.tested": "hES cell derived embryoid bodies", "measurement": "−"}
{"compound": "CC(C)C(=O)O", "system.tested": "hES cell derived embryoid bodies", "measurement": "±"}

Now for the compound whose Induction of hepatocyte phenotype we want.
Reported Induction of hepatocyte phenotype of CC(/C=C/C(=O)NO)=C\[C@@H](C)C(=O)c1ccc(N(C)C)cc1 : +
